# Tested on: A549
# Protocol description: Antiproliferative activity against human A549 cells after 72 hrs by MTT assay
# Type: functional, cell-based
# Test parameters: A549, 72 h
Just a reminder that ties go to 0.0: only IC50 strictly below 40 µM counts as 1.0.

- Chem smiles: "C[C@@H]1[C@H](OC(=O)/C=C/c2ccc(C(F)(F)F)cc2)C[C@H]2[C@@H](C)[C@H](OC(=O)/C=C/c3ccc(C(F)(F)F)cc3)O[C@@H]3O[C@@]4(C)CC[C@@H]1[C@]32OO4"
  Class: 1.0
- Chem smiles: "C[C@@H]1[C@H](O)C[C@H]2[C@@H](C)[C@H](OC(=O)CCc3ccccc3)O[C@@H]3O[C@@]4(C)CC[C@@H]1[C@]32OO4"
  Class: 0.0
- Chem smiles: "C[C@@H]1[C@H](O)C[C@H]2[C@@H](C)[C@@H](O)O[C@@H]3O[C@@]4(C)CC[C@@H]1[C@]32OO4"
  Class: 0.0
- Chem smiles: "C[C@H]1[C@@H](O)O[C@@H]2O[C@@]3(C)CC[C@H]4[C@H](C)CC[C@@H]1[C@@]24OO3"
  Class: 0.0
- Chem smiles: "COc1cc(/C=C/C(=O)O[C@@H]2O[C@@H]3O[C@@]4(C)CC[C@H]5[C@H](C)[C@H](OC(=O)/C=C/c6cc(OC)c(OC)c(OC)c6)C[C@@H]([C@H]2C)[C@@]35OO4)cc(OC)c1OC"
  Class: 1.0
- Chem smiles: "C[C@@H]1[C@H](OC(=O)/C=C/c2c(Cl)cccc2Cl)C[C@H]2[C@@H](C)[C@H](OC(=O)/C=C/c3c(Cl)cccc3Cl)O[C@@H]3O[C@@]4(C)CC[C@@H]1[C@]32OO4"
  Class: 0.0
- Chem smiles: "C[C@@H]1[C@H](O)C[C@H]2[C@@H](C)[C@H](OC(=O)/C=C/c3ccc(C(F)(F)F)cc3)O[C@@H]3O[C@@]4(C)CC[C@@H]1[C@]32OO4"
  Class: 0.0
- Chem smiles: "C[C@@H]1[C@H](O)C[C@H]2[C@@H](C)[C@H](OC(=O)/C=C/c3ccccc3F)O[C@@H]3O[C@@]4(C)CC[C@@H]1[C@]32OO4"
  Class: 0.0
- Chem smiles: "C[C@@H]1[C@H](O)C[C@H]2[C@@H](C)[C@H](OC(=O)/C=C/c3ccccc3Cl)O[C@@H]3O[C@@]4(C)CC[C@@H]1[C@]32OO4"
  Class: 0.0
- Chem smiles: "C[C@@H]1[C@H](OC(=O)/C=C/c2ccccc2Cl)C[C@H]2[C@@H](C)[C@H](OC(=O)/C=C/c3ccccc3Cl)O[C@@H]3O[C@@]4(C)CC[C@@H]1[C@]32OO4"
  Class: 0.0

----------
# System: A549
# Protocol description: Antiproliferative activity against human A549 cells after 72 hrs by MTT assay
# Format: functional, cell-based
# Test parameters: A549, 72 h
pIC50: −log10 of the molar value.
// values below are reported pIC50

- Chem smiles: "C[C@@H]1[C@H](OC(=O)/C=C/c2ccc([N+](=O)[O-])cc2)C[C@H]2[C@@H](C)[C@H](OC(=O)/C=C/c3ccc([N+](=O)[O-])cc3)O[C@@H]3O[C@@]4(C)CC[C@@H]1[C@]32OO4"
  Censor symbol: "<"
  pIC50: 4.00
- Chem smiles: "COc1ccc(/C=C/C(=O)O[C@@H]2O[C@@H]3O[C@@]4(C)CC[C@H]5[C@H](C)[C@H](O)C[C@@H]([C@H]2C)[C@@]35OO4)cc1OC"
  Censor symbol: "="
  pIC50: 4.54
- Chem smiles: "Cc1ccc(/C=C/C(=O)O[C@@H]2O[C@@H]3O[C@@]4(C)CC[C@H]5[C@H](C)[C@H](O)C[C@@H]([C@H]2C)[C@@]35OO4)cc1"
  Censor symbol: "<"
  pIC50: 4.00
- Chem smiles: "C[C@@H]1[C@H](OC(=O)/C=C/c2ccc(Cl)cc2)C[C@H]2[C@@H](C)[C@H](OC(=O)/C=C/c3ccc(Cl)cc3)O[C@@H]3O[C@@]4(C)CC[C@@H]1[C@]32OO4"
  Censor symbol: "="
  pIC50: 5.82
- Chem smiles: "COc1ccccc1/C=C/C(=O)O[C@@H]1O[C@@H]2O[C@@]3(C)CC[C@H]4[C@H](C)[C@H](O)C[C@@H]([C@H]1C)[C@@]24OO3"
  Censor symbol: "<"
  pIC50: 4.00
- Chem smiles: "C[C@@H]1[C@H](OC(=O)/C=C/c2cccc(Cl)c2)C[C@H]2[C@@H](C)[C@H](OC(=O)/C=C/c3cccc(Cl)c3)O[C@@H]3O[C@@]4(C)CC[C@@H]1[C@]32OO4"
  Censor symbol: "="
  pIC50: 5.57
- Chem smiles: "C[C@@H]1[C@H](OC(=O)/C=C/c2ccc(Br)cc2)C[C@H]2[C@@H](C)[C@H](OC(=O)/C=C/c3ccc(Br)cc3)O[C@@H]3O[C@@]4(C)CC[C@@H]1[C@]32OO4"
  Censor symbol: "="
  pIC50: 4.45
- Chem smiles: "C[C@@H]1[C@H](O)C[C@H]2[C@@H](C)[C@H](OC(=O)/C=C/c3ccc([N+](=O)[O-])cc3)O[C@@H]3O[C@@]4(C)CC[C@@H]1[C@]32OO4"
  Censor symbol: "<"
  pIC50: 4.00
- Chem smiles: "COc1cccc(/C=C/C(=O)O[C@@H]2O[C@@H]3O[C@@]4(C)CC[C@H]5[C@H](C)[C@H](O)C[C@@H]([C@H]2C)[C@@]35OO4)c1"
  Censor symbol: "<"
  pIC50: 4.00
- Chem smiles: "COc1ccc(/C=C/C(=O)O[C@@H]2O[C@@H]3O[C@@]4(C)CC[C@H]5[C@H](C)[C@H](OC(=O)/C=C/c6ccc(OC)c(OC)c6OC)C[C@@H]([C@H]2C)[C@@]35OO4)c(OC)c1OC"
  Censor symbol: "="
  pIC50: 5.78
